test system: Saccharomyces cerevisiae BY4741 SeMeCo community; test: z-score of subpopulation abundance vs DMSO median, subpopulation auxotrophic for HLUM; higher = larger share of this subpopulation than in DMSO controls; conditions: 10 µM; 24 h; SM minimal medium; subpopulation (auxotrophy): HLUM
propertyName: z-score of subpopulation abundance
Reply: number alone, nothing else.

Input Nc1ccc2cc3ccc(N)cc3nc2c1 [Proflavine Hemisulfate] , output reported z-score of subpopulation abundance.
-2.15

Input CO[C@H]1C[C@@H]2CC[C@@H](C)[C@@](O)(O2)C(=O)C(=O)N2CCCC[C@H]2C(=O)O[C@H]([C@H](C)C[C@@H]2CC[C@@H](OP(C)(C)=O)[C@H](OC)C2)CC(=O)[C@H](C)/C=C(\C)[C@@H](O)[C@@H](OC)C(=O)[C@H](C)C[C@H](C)/C=C/C=C/C=C/1C [Ridaforolimus (Deforolimus, MK-8669)] , output reported z-score of subpopulation abundance.
21.4

Input CO/N=C(\C(=O)N[C@@H]1C(=O)N2C(C(=O)OCOC(=O)C(C)(C)C)=C(/C=C\c3scnc3C)CS[C@H]12)c1csc(N)n1 [Cefditoren Pivoxil] , output reported z-score of subpopulation abundance.
0.48

All values here come from the supplement of paper PMC8975748.
